measurement.protocol: Photodecaging of O-(2-nitrobenzyl)-L-tyrosine by irradiation at 365 nm, LC/MS
Type: physicochemical
details: solution in water under UV irradiation (365 nm); irradiation at 365 nm; read-out: t1/2 of formation of the decaged amino acid
assay.metric: half-life at 0.2 mM (min)

                                   molecule         assay_metric  unit_label  reported_result
0  N[C@@H](Cc1ccc(OCc2ccccc2[N+](=O)[O-])cc1)C(=O)O [O-(2-nitrobenzyl)-L-tyrosine]  half-life at 0.2 mM         min                4
